tested on: NCI-H522; assay: NCI tumour cell line growth inhibition, 48 h
Active and inactive are the calls of the source. Cut-off read from the data, not from the text of the source: active = GI50 up to about 1.1 µM and inactive = higher.
parameter measured: GI50

Examples with answers:
compound	GI50
O=C(CCl)Nc1ccc(-c2nc3ccccc3s2)cc1	1.77 µM (inactive)
COC(=O)C(CSSC[C@H](N/C(C)=C/C(C)=O)C(=O)OC)N/C(C)=C/C(C)=O (some centres undefined)	13.9 µM (inactive)
CC(C)(C)CC(C)(C)c1cc2c(O)c(c1)Cc1cc(C(C)(C)CC(C)(C)C)cc(c1O)Cc1cc(C(C)(C)CC(C)(C)C)cc(c1O)Cc1cc(C(C)(C)CC(C)(C)C)cc(c1O)Cc1cc(C(C)(C)CC(C)(C)C)cc(c1O)Cc1cc(C(C)(C)CC(C)(C)C)cc(c1O)C2	> 100 µM (inactive)

In the following, a different compound is considered.
Ask | Param readout = GI50; param system = NCI-H522; param query = CC(C)(C)NC(=O)/C(=C\Sc1ccccc1)c1ccc2c(c1)OCO2 ; response: value
Reply | 17.9 µM (inactive)
